Reference for the values: patent EP2364976B1

Below, each entry is listed with its recorded EC50.
TESTED_TARGET: hS1P1 (Homo sapiens, UniProt P21453)
Sequence (P21453 whole entry): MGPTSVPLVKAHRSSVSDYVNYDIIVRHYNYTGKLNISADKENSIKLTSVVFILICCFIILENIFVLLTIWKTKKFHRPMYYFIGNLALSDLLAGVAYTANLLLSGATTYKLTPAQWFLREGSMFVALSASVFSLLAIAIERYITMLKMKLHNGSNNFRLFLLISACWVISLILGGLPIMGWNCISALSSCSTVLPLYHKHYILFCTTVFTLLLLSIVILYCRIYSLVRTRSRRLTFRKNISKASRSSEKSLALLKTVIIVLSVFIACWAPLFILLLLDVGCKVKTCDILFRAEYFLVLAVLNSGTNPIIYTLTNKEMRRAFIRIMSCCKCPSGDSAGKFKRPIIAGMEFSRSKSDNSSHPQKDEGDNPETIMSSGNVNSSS
MEASUREMENT_PROTOCOL: hS1P1 EC50 (S1P receptor Ca2+ flux protocol, FLIPR, CHO K1 Gqi5 cells)
CONDITION_INFO: several values per compound = repeat determinations as printed
State just the number; it will be interpreted in nM.

Known results for molecules:
MOLECULE | UNIT_TEXT | REPORTED
O=C(O)C1CN(Cc2ccc(-c3cc4cc(-c5cccnc5)ccc4o3)cc2)C1 [Reference Compound 12] | nM | 3600
CC(C)(c1ccccc1)c1ccc2oc(-c3ccc(CN4CC(C(=O)O)C4)cc3F)cc2c1 [Reference Compound 97] | nM | 365
Cc1cccc(-c2ccc3oc(-c4ccc(CN5CC(C(=O)O)C5)cc4)cc3c2)n1 [Reference Compound 18] | nM | 2900
O=C(O)C1CCN(Cc2ccc(-c3cc4cc(Cc5ccccc5)ccc4o3)c(F)c2)C1 (racemic) [Reference Compound 41] | nM | 315
O=C(O)C1CN(Cc2ccc(-c3cc4cc(Cc5ccccc5)ccc4[nH]3)c(F)c2)C1 [Reference Compound 99] | nM | 1340

Which EC50 value belongs to CC(C)CCc1ccc2oc(-c3ccc(CN4CC(C(=O)O)C4)cc3)cc2c1 [Reference Compound 20] ?
630

Follow-up entry: O=C(O)CCNCc1ccc(-c2cc3cc(C4CCCC4)ccc3o2)c(F)c1 [Reference Compound 58]
1070
